Heads up, these compounds all have pIC50 values measured for Full length EN PA (influenza PA endonuclease) (Influenza A virus, UniProt P15659).
pIC50: −log10 of the molar value.

For every record below, what is its pIC50?
1. CCN1C[C@H]([C@@H](c2ccccc2)c2cccc(Cl)c2)n2ncc(=O)c(OC(=O)C(C)C)c2C1=O [Compound 67-A]
2. CC(C)N1C[C@H]([C@@H](c2ccccc2)n2ccc(C#N)n2)n2ncc(=O)c(O)c2C1=O [Compound 127-B]
3. CN1CC(C2c3cc(F)ccc3CCc3c(F)cccc32)n2ncc(=O)c(O)c2C1=O (stereo not shown) [Compound 56]
4. CC(C)C(=O)Oc1c2n(ncc1=O)[C@@H](C1c3cccc(F)c3CCc3c(F)cccc31)CN(C(C)C)C2=O [Compound 114-A]

OUT:
1. > 6.60
2. > 6.60
3. > 6.60
4. > 6.60
